Data origin: the kinase profiling compilation of Christmann-Franck et al. (2016)

Would you mind telling me the reported residual activity of each entry?
- measurement target: CLK2 (human) (UniProt P49760)
- Sequence (P49760 whole entry, looked up): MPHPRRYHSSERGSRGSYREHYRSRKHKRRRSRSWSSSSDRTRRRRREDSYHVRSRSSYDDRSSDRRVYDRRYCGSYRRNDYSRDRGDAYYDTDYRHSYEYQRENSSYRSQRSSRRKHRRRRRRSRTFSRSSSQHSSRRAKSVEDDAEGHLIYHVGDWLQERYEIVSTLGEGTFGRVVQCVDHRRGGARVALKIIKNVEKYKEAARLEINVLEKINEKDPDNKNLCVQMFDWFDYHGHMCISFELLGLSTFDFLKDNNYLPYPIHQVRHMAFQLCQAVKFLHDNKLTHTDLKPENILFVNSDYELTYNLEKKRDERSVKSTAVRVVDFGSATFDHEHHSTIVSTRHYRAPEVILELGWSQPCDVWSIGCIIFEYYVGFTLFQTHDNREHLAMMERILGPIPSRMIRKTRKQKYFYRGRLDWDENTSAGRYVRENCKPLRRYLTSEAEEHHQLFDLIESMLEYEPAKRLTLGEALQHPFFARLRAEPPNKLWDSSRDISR
- protocol summary: radiometric filter-binding kinase assay, Kinase HotSpot
- study conditions: compound 0.5 µM; ATP 10 µM
# output: bare number, implied unit %

Q: Jot down residual activity (CLK2 (human) (UniProt P49760)) of Nc1ncnc2c1cnn2-c1ccccc1 .
Ans: 91.4

Q: Jot down residual activity (CLK2 (human) (UniProt P49760)) of O=C(O)c1ccc2c3c1cccc3c(=O)n1c3ccccc3nc21 .
Ans: 91

Q: Jot down residual activity (CLK2 (human) (UniProt P49760)) of FC(F)(F)c1ccc(/C=C/c2nc(COc3ccc(CCCCn4ccnn4)cc3)co2)cc1 .
Ans: 89.6

Q: Jot down residual activity (CLK2 (human) (UniProt P49760)) of O=c1c2ccccc2[nH]c(=S)n1CCN1CCC(=C(c2ccc(F)cc2)c2ccc(F)cc2)CC1 .
Ans: 87.8

Q: Jot down residual activity (CLK2 (human) (UniProt P49760)) of COc1cc2c(Nc3ccc(Br)cc3F)ncnc2cc1OCC1CCN(C)CC1 .
Ans: 89.7

Q: Jot down residual activity (CLK2 (human) (UniProt P49760)) of N/C(=N\N=C/c1ccc(-c2cccc([N+](=O)[O-])c2)o1)N[N+](=O)[O-] .
Ans: 88.3

Q: Jot down residual activity (CLK2 (human) (UniProt P49760)) of O=C1NC(=O)c2cc(Nc3ccc(F)cc3)c(Nc3ccc(F)cc3)cc21 .
Ans: 88.1

Q: Jot down residual activity (CLK2 (human) (UniProt P49760)) of Cc1cc(Nc2nc(-c3ccccc3)nc3ccccc23)n[nH]1 .
Ans: 91.7
